TARGET: TAFIa (Homo sapiens (Human), UniProt Q96IY4)
Sequence (Q96IY4 115-423): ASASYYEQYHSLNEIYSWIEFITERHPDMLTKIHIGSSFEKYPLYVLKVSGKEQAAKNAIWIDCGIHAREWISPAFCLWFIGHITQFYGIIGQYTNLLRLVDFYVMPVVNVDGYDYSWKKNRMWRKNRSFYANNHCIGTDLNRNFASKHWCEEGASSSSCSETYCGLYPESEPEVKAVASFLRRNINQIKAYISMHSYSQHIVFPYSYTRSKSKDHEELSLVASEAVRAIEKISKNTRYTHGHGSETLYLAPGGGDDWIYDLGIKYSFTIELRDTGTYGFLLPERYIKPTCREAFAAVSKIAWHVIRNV
TEST: TAFIa enzyme assay (Actichrome plasma TAFI activity kit)
CONDITION_SUMMARY: 15 min preincubation at room temperature, read at 420 nm, duplicate determination
pIC50: −log10 of the molar value.
Below is a list of entries, each paired with its recorded pIC50 value.
MEASUREMENT_NAME: pIC50

# MOLECULE, MEASUREMENT_NAME, OBSERVED_VALUE
measured = [
    ("Nc1ccc(CC(C(=O)O)c2cn(CC(=O)NC(c3ccccc3)c3ccccc3)cn2)cn1 (stereo not drawn) [Example 10]", "pIC50", 7.64),
    ("Nc1ccc(CC(C(=O)O)c2cn(Cc3cccc(Oc4ccc(F)cc4)c3)cn2)cn1 (stereo not drawn) [Example 28]", "pIC50", 5.84),
    ("Nc1ccc(CC(C(=O)O)c2cn(C3CCCCC3)cn2)cn1 (stereo not drawn) [Example 1]", "pIC50", 7.52),
    ("Nc1ccc(CC(C(=O)O)c2cn(C3CCN(c4ccccc4)C3=O)cn2)cn1 (stereo not drawn) [Example 9]", "pIC50", 6.36),
    ("Nc1ccc(CC(C(=O)O)c2cn(CCC3CCN(C(=O)CCc4ccccc4)CC3)cn2)cn1 (stereo not drawn) [Example 18]", "pIC50", 7.68),
    ("Nc1ccc(CC(C(=O)O)c2cn(Cc3ccc(OC(F)(F)F)cc3)cn2)cn1 (stereo not drawn) [Example 25]", "pIC50", 4.98),
    ("Nc1ccc(CC(C(=O)O)c2cn(-c3ccc(NC(=O)Nc4ccccc4)cc3)cn2)cn1 (stereo not drawn) [Example 12]", "pIC50", 7.82),
    ("Nc1ccc(CC(C(=O)O)c2cn(C3CCCC3)cn2)cn1 (stereo not drawn) [Example 7]", "pIC50", 7.80),
    ("Nc1ccc(CC(C(=O)O)c2cn(Cc3csc4ccc(Cl)cc34)cn2)cn1 (stereo not drawn) [Example 27]", "pIC50", 5.95),
]

----------
TARGET: TAFIa (Homo sapiens (Human), UniProt Q96IY4)
TEST: TAFIa enzyme assay (Actichrome plasma TAFI activity kit)
CONDITION_SUMMARY: 15 min preincubation at room temperature, read at 420 nm, duplicate determination
pIC50: −log10 of the molar value.
Label true (1) when pIC50 is at or above 8; otherwise label false (0).

# COMPOUND, LABEL_VALUE
data = [
    ("Nc1ccc(CC(C(=O)O)c2cn(C3CCNCC3)cn2)cn1 (stereo not drawn)", "false (0)"),
    ("CC1(C)CCC(n2cnc(C(Cc3ccc(N)nc3)C(=O)O)c2)CC1 (stereo not drawn)", "true (1)"),
    ("Cc1ccc(S(=O)(=O)Nc2ccc(-n3cnc(C(Cc4ccc(N)nc4)C(=O)O)c3)cc2)cc1 (stereo not drawn)", "false (0)"),
    ("CCCNC(=O)Nc1ccc(-n2cnc(C(Cc3ccc(N)nc3)C(=O)O)c2)cc1 (stereo not drawn)", "false (0)"),
    ("Nc1ccc(CC(C(=O)O)c2cn(CCC3CCCN(C(=O)CCc4ccccc4)C3)cn2)cn1 (stereo not drawn)", "false (0)"),
    ("C#CCn1cnc(C(Cc2ccc(N)nc2)C(=O)O)c1 (stereo not drawn)", "false (0)"),
]

----------
Below is a list of entries, each paired with its recorded IC50 value.
TARGET: TAFIa (Homo sapiens (Human))
TEST: TAFIa enzyme assay (Actichrome plasma TAFI activity kit)
CONDITION_SUMMARY: 15 min preincubation at room temperature, read at 420 nm, duplicate determination
MEASUREMENT_NAME: IC50 (nM)

# COMPOUND, OBSERVED_VALUE
data = [
    ("Nc1ccc(CC(C(=O)O)c2cn(CC3CCCN(C(=O)C(c4ccccc4)c4ccccc4)C3)cn2)cn1 (stereo not drawn) [Example 17]", 11),
    ("Nc1ccc(CC(C(=O)O)c2cn(CCC3CCN(C(=O)C(c4ccccc4)c4ccccc4)CC3)cn2)cn1 (stereo not drawn) [Example 13]", 12),
    ("Nc1ccc(CC(C(=O)O)c2cn(CC3CCCCN3C(=O)c3ccccc3)cn2)cn1 (stereo not drawn) [Example 15]", 12),
]
